All values here come from patent US9315490B2.

Entries and their measured Inhibition in % follow.
TARGET ENTITY: human PDE4B1 (Homo sapiens)
Construct: host or cells: Sf9 cells
Sequence (Q07343 whole entry): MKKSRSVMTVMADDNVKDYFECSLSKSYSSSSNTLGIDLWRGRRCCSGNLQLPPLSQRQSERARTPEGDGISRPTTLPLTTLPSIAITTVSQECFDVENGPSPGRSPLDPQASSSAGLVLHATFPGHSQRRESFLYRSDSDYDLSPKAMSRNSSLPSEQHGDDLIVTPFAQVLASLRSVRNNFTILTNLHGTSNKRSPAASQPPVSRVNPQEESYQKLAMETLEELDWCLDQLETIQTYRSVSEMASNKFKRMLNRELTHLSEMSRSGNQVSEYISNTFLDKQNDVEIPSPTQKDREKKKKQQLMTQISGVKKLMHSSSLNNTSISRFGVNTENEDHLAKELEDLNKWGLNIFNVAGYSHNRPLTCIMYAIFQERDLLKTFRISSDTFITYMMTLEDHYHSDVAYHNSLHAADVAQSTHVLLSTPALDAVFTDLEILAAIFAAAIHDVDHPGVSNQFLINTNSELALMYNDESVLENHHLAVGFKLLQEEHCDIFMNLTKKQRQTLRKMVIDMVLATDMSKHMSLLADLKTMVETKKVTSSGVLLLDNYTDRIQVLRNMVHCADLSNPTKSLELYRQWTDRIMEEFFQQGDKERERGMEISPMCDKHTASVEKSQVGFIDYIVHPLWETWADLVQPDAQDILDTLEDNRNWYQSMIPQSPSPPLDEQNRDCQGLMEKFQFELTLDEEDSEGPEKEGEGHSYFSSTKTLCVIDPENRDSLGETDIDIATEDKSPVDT
MEASUREMENT PROTOCOL: cAMP HTRF assay to determine the activity of hPDE4B1
Type: biochemical
CONDITION DETAILS: inhibition of PDE4B at a test concentration of 1 μM, 1 µM
Value expressed in %; do not type the unit.

Look over these answered cases.
compound="CC1CN(C(=O)c2ccc3c([S+](C)[O-])cn(-c4ncc(-c5ccccc5F)cn4)c3c2)CC(C)O1 (single isomer, unassigned) [Example 378]" observed_measurement=31
compound="C[S+]([O-])c1cn(-c2ncc(-c3ccccc3F)cn2)c2cc(C(=O)N3CCOC(C)(C)C3)ccc12 (centres unmarked)" observed_measurement=63
compound="CC(O)c1cn(-c2ncc(-c3ccccc3F)cn2)c2cc(C(=O)N3CCOCC3)ccc12 (single isomer, unassigned) [Example 253]" observed_measurement=120

# input compound: COc1cccc(-c2cnc(-n3cc([S+](C)[O-])c4ccc(C(=O)N5CCOCC5)cc43)nc2)c1 (single isomer, unassigned) [Example 157] ; wanted: its Inhibition in % 81

# input compound: C[S+]([O-])c1cn(-c2ncc(-c3ccccc3F)cn2)c2cc(C(=O)N3CCOCC3)ccc12 (single isomer, unassigned) ; wanted: its Inhibition in % 93

# input compound: C[S+]([O-])c1cn(-c2ncc(-c3ccccc3)cn2)c2cc(C(=O)N3CCOCC3)ccc12 (single isomer, unassigned) ; wanted: its Inhibition in % 92

----------
TARGET ENTITY: human PDE4B1 (Homo sapiens)
Construct: host or cells: Sf9 cells
MEASUREMENT PROTOCOL: cAMP HTRF assay to determine the activity of hPDE4B1
Type: biochemical
CONDITION DETAILS: inhibition of PDE4B at a test concentration of 1 μM
Entries and their measured inhibition at 1 µM follow.
Value expressed in %; do not type the unit.

Look over these answered cases.
compound="C[C@H]1COCCN1C(=O)c1ccc2c([S+](C)[O-])cn(-c3ncc(-c4ccccc4F)cn3)c2c1 (stereo partly shown) [Example 178]" observed_measurement=88
compound="Cc1cc(-c2cnc(-n3cc([S+](C)[O-])c4ccc(C(=O)N5CCOCC5)cc43)nc2)ccn1 (stereo not shown) [Example 186]" observed_measurement=74
compound="COCCN1CCN(C(=O)c2ccc3c([S+](C)[O-])cn(-c4ncc(-c5ccccc5F)cn4)c3c2)CC1 (stereo not shown) [Example 392]" observed_measurement=0
compound="COC(=O)C1CCN(C(=O)c2ccc3c([S+](C)[O-])cn(-c4ncc(-c5ccccc5F)cn4)c3c2)C1 (stereo not shown) [Example 388]" observed_measurement=45
compound="C[S+]([O-])c1cn(-c2ncc(-c3ccnnc3)cn2)c2cc(C(=O)N3CCOCC3)ccc12 (stereo not shown) [Example 212]" observed_measurement=33
compound="C[S+]([O-])c1cn(-c2ncc(-c3ccccc3F)cn2)c2cc(C(=O)N3CCN(CCC#N)CC3)ccc12 (stereo not shown) [Example 391]" observed_measurement=31

Could you now look at the following compound, please?
# input compound: CS(=O)(=O)c1cn(-c2ncc(-c3ccccc3F)cn2)c2cc(C(=O)N3CCNCC3)ccc12 [Example 24] ; wanted: its inhibition at 1 µM 41

----------
TARGET ENTITY: human PDE4B1 (Homo sapiens)
Construct: host or cells: Sf9 cells
MEASUREMENT PROTOCOL: cAMP HTRF assay to determine the activity of hPDE4B1
Type: biochemical
CONDITION DETAILS: inhibition of PDE4B at a test concentration of 1 μM
Entry flag: T if inhibition at 1 µM reaches 90%; F if it does not.

The examples below pair each entry with its known result.
compound="CO[C@@H]1CCN(C(=O)c2ccc3c([S+](C)[O-])cn(-c4ncc(-c5ccccc5F)cn4)c3c2)C1 (stereo partly drawn)" target_entity="human PDE4B1 (Homo sapiens)" label_value=F
compound="C[S+]([O-])c1cn(-c2ncc(-c3ccc(C(N)=O)cn3)cn2)c2cc(C(=O)N3CCOCC3)ccc12 (stereo not drawn)" target_entity="human PDE4B1 (Homo sapiens)" label_value=T
compound="CC(O)c1cn(-c2ncc(-c3ccccc3F)cn2)c2cc(C(=O)N3CCOCC3)ccc12 (stereo not drawn)" target_entity="human PDE4B1 (Homo sapiens)" label_value=T
compound="CC(=O)N1CCN(C(=O)c2ccc3c([S+](C)[O-])cn(-c4ncc(-c5ccccc5F)cn4)c3c2)CC1 (stereo not drawn)" target_entity="human PDE4B1 (Homo sapiens)" label_value=F
compound="C[S+]([O-])c1cn(-c2ncc(-c3ccccc3F)cn2)c2cc(C(=O)N3CCNC(=O)C3)ccc12 (stereo not drawn)" target_entity="human PDE4B1 (Homo sapiens)" label_value=F
compound="C[S+]([O-])c1cn(-c2ncc(-c3ccccc3F)cn2)c2cc(C(=O)N3CCNCC3)ccc12 (stereo not drawn)" target_entity="human PDE4B1 (Homo sapiens)" label_value=F
compound="C[S+]([O-])c1cn(-c2ncc(-c3cc(O)ccc3F)cn2)c2cc(C(=O)N3CCOCC3)ccc12 (stereo not drawn)" target_entity="human PDE4B1 (Homo sapiens)" label_value=T
compound="COc1cccc(-c2cnc(-n3cc([S+](C)[O-])c4ccc(C(=O)N5CCNC(=O)C5)cc43)nc2)c1 (single isomer, unassigned)" target_entity="human PDE4B1 (Homo sapiens)" label_value=T
compound="Cc1cccc(-c2cnc(-n3cc([S+](C)[O-])c4ccc(C(=O)N5CCOCC5)cc43)nc2)n1 (stereo not drawn)" target_entity="human PDE4B1 (Homo sapiens)" label_value=T
compound="C[S+]([O-])c1cn(-c2ncc(-c3cccnc3)cn2)c2cc(C(=O)N3CCOCC3)ccc12 (stereo not drawn)" target_entity="human PDE4B1 (Homo sapiens)" label_value=F

Evaluate C[S+]([O-])c1cn(-c2ncc(-c3ccccc3F)cn2)c2cc(C(=O)N3CCC[C@H](O)C3)ccc12 (stereo partly drawn) : inhibition at 1 µM at minimum 90%? F

Evaluate CN(CCC(=O)O)C(=O)c1ccc2c([S+](C)[O-])cn(-c3ncc(-c4ccccc4F)cn3)c2c1 (stereo not drawn) : inhibition at 1 µM at minimum 90%? F

Evaluate C[S+]([O-])c1cn(-c2ncc(-c3ccccc3F)cn2)c2cc(C(=O)N3CCCNCC3)ccc12 (stereo not drawn) : inhibition at 1 µM at minimum 90%? F
